Tested on: CD19+ B cells
Assay: Human B cell proliferation assay (3H-thymidine incorporation)
Details: B cells; donor 121 mean; 2 μg/ml; Experiment B
Strand notation (5' to 3'): a small letter for the sugar, then the base; units joined by * are phosphorothioate-linked, units joined directly phosphodiester-linked; [ ] holds rarer units or linkages, { } end groups; capitals alone tell only the bases. d = 2'-deoxy (DNA)
The entries below are paired with their reported mean cpm.
measure: mean cpm (cpm)

5′-TCGTCG-3′-C12-5′-ACGTTCG-3′-C12-5′-AGATGAT-3′ [Compound C-19] = 961
5′-ACGTTCG-3′-HEG-5′-ACGTTCG-3′-HEG-5′-AGATGAT-3′ [Compound C-24] = 5931
5′-TCGTCG-3′-TEG-5′-ACGTTCG-3′-TEG-5′-AGATGAT-3′ [Compound C-18] = 15869
(5′-TCGTCGA-3′-HEG)2-glycerol-HEG-5′-TCGTCGA-3′ [Compound C-94] = 12311
5′-TCGTCGA-3′- C3-5′-ACGTTCG-3′-C3-5′-AGATGAT-3′ [Compound C-9] = 27072
5′-TCGTCG-3′-abasic-5′-ACGTTCG-3′-abasic-5′-AGATGAT-3′ [Compound C-20] = 30220
5′-TCGTCG-3′-C4-5′-ACGTTCG-3′-C4-5′-AGATGAT-3′ [Compound C-17] = 22765
5′-TCGTCG-3′-HME-5′-ACGTTCG-3′-HME-5′-AGATGAT-3′ [Compound C-25] = 31952
5′-TCGTCG-3′-HEG-5′-AACGTT-3′-HEG-5′-AGATGAT-3′ [Compound C-23] = 15645
5′-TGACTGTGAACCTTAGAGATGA-3′ (SEQ ID NO: 3) (dT*dG*dA*dC*dT*dG*dT*dG*dA*dA*dC*dC*dT*dT*dA*dG*dA*dG*dA*dT*dG*dA) [Compound P-7, reference compound] = 2115
5′-TCGTCG-3′-HEG-5′-ACGTTCG-3′-HEG-5′-AGATGAT-3′ [Compound C-10] = 15145
5′-TCGTCGA-3′-HEG-5′-ACGTTCG-3′-HEG-5′-AGATGAT-3′ [Compound C-8] = 10793
(5′-TCGTCGA-3′)2-glycerol-5′-TCGTCGA-3′ [Compound C-28] = 29709
5′-TCGTCG-3′-HEG-5′-TCGTCG-3′-HEG-5′-TCGTCG-3′ [Compound C-22] = 12668
5′-TCGTCG-3′- C3-5′-ACGTTCG-3′-C3-5′-AGATGAT-3′ [Compound C-11] = 26436

The measured values listed here are drawn from patent US9028845B2.
